The entries below come with measured pIC50 values attached.
Tested on: CHO cells
Test: Ant44 rescue assay in CHO cells (Assay 1)
Type: cell-based, Chinese hamster
Settings: Cricetulus griseus, CHO; Table 7; read-out: SAR IC50 Ant44 assay
pIC50: −log10 of the molar value.

[
  {
    "SMILES_TEXT": "COc1ccc(C(=O)Nc2ccc(N3CCN(c4cc(Cl)ccc4C)CC3)cc2C(=O)O)cc1",
    "ASSAYED_TARGET": "CHO cells",
    "pIC50": "< 4.40"
  },
  {
    "SMILES_TEXT": "COc1ccc(C(=O)Nc2ccc(N3CCC(C(N)=O)CC3)cc2C(=O)O)cc1",
    "ASSAYED_TARGET": "CHO cells",
    "pIC50": "< 4.40"
  },
  {
    "SMILES_TEXT": "COc1ccc(CC(=O)Nc2ccc(N3CCN(c4cc(Cl)ccc4C)CC3)cc2C(=O)O)cc1",
    "ASSAYED_TARGET": "CHO cells",
    "pIC50": 4.49
  }
]

---

Test system: CHO cells
Experiment: Ant44 rescue assay in CHO cells (Assay 1)
Format: cell-based, Chinese hamster
Details: Cricetulus griseus, CHO; Table 7; read-out: SAR IC50 Ant44 assay
pIC50: −log10 of the molar value.
MEASUREMENT_TYPE: pIC50

[
  {
    "SMILES_TEXT": "COc1ccc(C(=O)Nc2ccc(N3CCN(c4ccccc4Cl)CC3)cc2C(=O)O)cc1",
    "MEASUREMENT_TYPE": "pIC50",
    "RESULT": "< 4.40"
  },
  {
    "SMILES_TEXT": "COc1ccccc1C(=O)Nc1ccc(N2CCN(Cc3ccccc3)CC2)cc1C(=O)O",
    "MEASUREMENT_TYPE": "pIC50",
    "RESULT": "< 4.40"
  },
  {
    "SMILES_TEXT": "COc1ccccc1N1CCN(c2ccc(N3C(=O)CCC3=O)cc2[N+](=O)[O-])CC1",
    "MEASUREMENT_TYPE": "pIC50",
    "RESULT": "< 4.40"
  },
  {
    "SMILES_TEXT": "COc1ccc(S(=O)(=O)Nc2ccc(N3CCN(c4cc(Cl)ccc4C)CC3)cc2C(=O)O)cc1",
    "MEASUREMENT_TYPE": "pIC50",
    "RESULT": "< 4.40"
  },
  {
    "SMILES_TEXT": "COC(=O)c1cc(N2CCN(c3cc(Cl)ccc3C)CC2)ccc1NC(=O)c1ccccc1OC",
    "MEASUREMENT_TYPE": "pIC50",
    "RESULT": "< 4.40"
  },
  {
    "SMILES_TEXT": "COC(=O)c1cc(CN2CCN(c3ccccn3)CC2)ccc1NC(=O)c1ccccc1OC",
    "MEASUREMENT_TYPE": "pIC50",
    "RESULT": "< 4.70"
  },
  {
    "SMILES_TEXT": "COc1ccccc1C(=O)Nc1ccc(N2CCN(c3ccccn3)CC2)cc1",
    "MEASUREMENT_TYPE": "pIC50",
    "RESULT": "< 4.40"
  },
  {
    "SMILES_TEXT": "COc1ccc(C(=O)Nc2ccc(N3CCN(c4ccccc4)CC3)cc2C(=O)O)cc1",
    "MEASUREMENT_TYPE": "pIC50",
    "RESULT": "< 4.40"
  },
  {
    "SMILES_TEXT": "COC(=O)c1cc(N2CCN(c3cc(Cl)ccc3C)CC2)ccc1NC(=O)c1ccc(OC)cc1",
    "MEASUREMENT_TYPE": "pIC50",
    "RESULT": "< 4.40"
  }
]

Values compiled from patent US11905268B2.
